# MEASUREMENT PROTOCOL: Toxicity liver stage against HepG2, at 10uM
# Type: cell-based
# Set-up: test concentration 10 uM, cell line HepG2-A16-CD81EGFP
# CONDITIONS: human, HepG2-A16-CD81EGFP cells; read-out: INHIBITION
RECORDED ENDPOINT: cytotoxicity at 10 µM (%)
Express it in %; write the number only.

For orientation, consider the following solved cases.
> print(dat)
                                   compound  unit.of.measurement  endpoint.value
1  CN(C)C(=O)CS(=O)(=O)Cc1ccn(-c2cccc(F)c2)n1                    %            3.03
2  O=C(c1cccnc1)N1CCCC2(COCCN(c3ccccc3)C2)C1 (stereo unspecified)                    %            2.17

**Q:** Record request: cytotoxicity at 10 µM value, item Cc1cncc(C(=O)N2CCCC(C(=O)CCc3ccccc3)C2)c1 (stereo unspecified)
**A:** -10.1

**Q:** Repeat for the following compound: CN1CCN(S(=O)(=O)c2ccc3c(c2)CN(C(=O)C(C)(C)C)CC3)CC1
**A:** -8.91

**Q:** And for CN(Cc1ccco1)C[C@H]1OC[C@@H]2CN(c3ncc(F)cn3)CC[C@@H]21 ?
**A:** 21.9

**Q:** Same for COc1ccccc1C(C)CNC(=O)c1c(C)nn(C)c1OC (stereo unspecified)
**A:** -11.4

**Q:** Same read-out for O=C(C1CC1)N1CCC2(CC1)CNCCO2 ?
**A:** -2.82

**Q:** What about O=C(C1CC1)N1CCC[C@]2(C[C@@H](OCc3ccncc3)CO2)C1 ?
**A:** 6.46

**Q:** CCCc1ccc(C(=O)N2CCc3c(nc(N(C)C)[nH]c3=O)C2)cc1 ?
**A:** 8.7

**Q:** Repeat for the following compound: CC(C)C(NC(=O)NCCNc1cnccn1)c1cccs1 (stereo unspecified)
**A:** 0.0264

**Q:** What do you get for CC(C)c1n[nH]c(C(=O)Nc2ccncc2)c1Br ?
**A:** 12.6

---

# MEASUREMENT PROTOCOL: Toxicity liver stage against HepG2, at 10uM
# Format: cell-based
# Parameters: test concentration 10 uM, cell line HepG2-A16-CD81EGFP
# CONDITIONS: human, HepG2-A16-CD81EGFP cells; read-out: INHIBITION
RECORDED ENDPOINT: cytotoxicity at 10 µM (%)
Field format: number, assumed %, no unit text.

Example cases with answers are listed next.
> print(dat)
                                   compound  endpoint.value
1               CNC(=O)c1coc(-c2csc(C)n2)c1            6.96
2  C=C(C)CN1CCC(NC(=O)NCCc2ccc(N(C)C)cc2)CC1             2.2
3  CCOc1cc(C(=O)N2CCCC(c3cc(C(N)=O)[nH]n3)C2)ccn1 (centres undefined)           -7.37
4                   COc1cc(CO)c(OC)c2c1OCO2           -2.93
5  CCCc1cc(=O)n(CC(=O)NCCOC)c(-n2nc(C)cc2C)n1            1.69

**Q:** I'd like to know its cytotoxicity at 10 µM. The compound in question is CCc1noc(C(C)N(C)CC(=O)Nc2cccc(C)c2C)n1 (centres undefined)
**A:** 6.35

**Q:** Now consider O=S(=O)(c1c(F)cccc1F)N1CCCC1c1nnc2n1CCCCC2 (centres undefined) and answer again.
**A:** 11.2

**Q:** What would you report for N#Cc1ccccc1C(=O)N1C[C@@H](CN2CCOCC2)[C@@H](CO)C1 ?
**A:** -1.06
